Entries annotated with measured melting point

Examples from the recorded data:
| COMPOUND | melting point |
| --- | --- |
| CCCCCCC1(CCCCCC)c2cc(Br)ccc2-c2ccc(-c3ccc(-c4ccc5c(c4)C(CCCCCC)(CCCCCC)c4cc(Br)ccc4-5)c4snnc34)cc21 | 188 to 190 °C |
| CCNC(=O)[C@@H](C)NC(=O)[C@H](Cc1c[nH]cn1)NC(=O)[C@H](COCc1ccccc1)NC(=O)[C@H](Cc1ccc(OCc2ccccc2)cc1)NC(=O)[C@H](Cc1c[nH]cn1)NCc1ccccc1 | 83 to 88 °C |
| COc1ccc(OC)c(CCNC(=O)N[C@H](Cc2cc(Br)c(O)c(Br)c2)C(=O)N[C@@H](CCCCN)C(=O)N2CCN(c3ccncc3)CC2)c1 | 135 to 137 °C |
| COC(=O)C(CCN1C(=O)c2ccccc2C1=O)Oc1c(Br)cc(-c2c3ccccc3c(Br)c3sc4ccccc4c23)cc1Br (stereo not given) | 221 to 222 °C |
| CN(Cc1ccccc1)Cc1c(-c2ccc([N+](=O)[O-])cc2)sc2c1c(=O)n(-c1ccccc1)c(=O)n2Cc1c(F)cccc1F | 173 to 174 °C |

Fill in melting point for record FC(F)(F)C(F)(F)C(F)(F)C(F)(F)C(F)(F)C(F)(F)CCc1ccc(P(c2ccc(CCC(F)(F)C(F)(F)C(F)(F)C(F)(F)C(F)(F)C(F)(F)F)cc2)c2ccc(CCC(F)(F)C(F)(F)C(F)(F)C(F)(F)C(F)(F)C(F)(F)F)cc2)cc1
49.9 to 52.4 °C

Tell me measured melting point for CC(=O)OCC(CNC(=O)c1c(I)c(C(=O)NCC(COC(C)=O)OC(C)=O)c(I)c(N2CCCCC2=O)c1I)OC(C)=O (stereo not given) please.
130 to 134 °C

# return recorded melting point for input CC(C)[C@H](NC(=O)N(C)Cc1csc(N)n1)C(=O)N[C@@H](Cc1ccccc1)C[C@H](O)[C@H](Cc1ccccc1)NC(=O)[C@@H](NC(=O)N(C)Cc1csc(N)n1)C(C)C
110 to 114 °C

Fill in reported melting point for this entry: CCCCOC(=O)c1ccc(=O)[nH]n1
79 to 80 °C

Quote melting point reported for NC(=O)c1cc(-c2ccccc2)c(=O)n2c1-c1sccc1CC2 please.
281 to 282 °C
